Tested on: MS2 coat protein
Assay: apparent Kd, MS2 coat protein; higher = weaker binding; RNA-MaP array; tryptophan 2.4 mM where present
Settings: ligand present: tryptophan; designed as: OFF switch for tryptophan
Measurement Type: apparent Kd (nM)
Give just the numeric value; nM need not be written.

QUERY: Item CUGCUACAUACGGCCGCCACUUUAAACAUGAGGAUCACCCAUGUACGGAAGGGUGGUAAAUGUUAAAGGACCGGGUAUGUAGCAA has what recorded apparent Kd?
RESULT: 45.1

QUERY: Item AUAAUGAGUGGUGGAUAGGUGAUCCUCUUACGAGGACCGGUACGGCCGCCACUCGAUAACAUGAGGAUCACCCAUGUAAUAAUAA has what recorded apparent Kd?
RESULT: 49.9

QUERY: Item CUCAUCCACGCGGCCGCCACUAUAUUGUGGUGUGAAUGUGUCGUAAUACAUGAGGAUCACCCAUGUAGGACCGGGCGUGGAUGAG has what recorded apparent Kd?
RESULT: 32.9

QUERY: Item AGCCGCGUUCUUUCUUUCUUUCUAGCGGCACGAGGACCGGUACGGCCGCCACUCGCCCACAUGAGGAUCACCCAUGUAGUGGGUG has what recorded apparent Kd?
RESULT: 80.6

QUERY: Item UAUCGAGGUACAUGAGGAUCACCCAUGUAUCGAGGACCGGUACGGCCGCCACUCGAUAAUGGCGGAUCGUUAGUCCUCUUCGAUA has what recorded apparent Kd?
RESULT: 11.4

QUERY: Item UCGUUUUAGUCGGCCGCCACUGAACUCAUGUUCAACAUGAGGAUCACCCAUGUACCUUAUUUUAACAGGACCGGGACGUAAUAGA has what recorded apparent Kd?
RESULT: 97.5

QUERY: Item GAUAUGGAAACAUGUCAGAUCCUUACCGGUCGAGGACCGGUACGGCCGCCACUCGCAAAUAUUGUACAUGAGGAUCACCCAUGUA has what recorded apparent Kd?
RESULT: 13.6

QUERY: Item UCCUGCAGAGCGGCCGCCACUGUGUUGCGUGAGGAUGACCCAACAUGAGGAUCACCCAUGUUGUUUAGGACCGGGCUUGCCUCGA has what recorded apparent Kd?
RESULT: 12.3

QUERY: Item GUAUUAACAAAAGUUGAUACAGUGGGUGAACGAGGACCGGUACGGCCGCCACUCGGACAUGAGGAUCACCCAUGUCCAUGUGAAA has what recorded apparent Kd?
RESULT: 27.2

QUERY: Item AAUACCGGUCCUCGAAGGUGAUCCUCAUAACGAGGACCGGUACGGCCGCCACUCGAUAACAUGAGGAUCACCCAUGUAAUAAUAA has what recorded apparent Kd?
RESULT: 138

QUERY: Item AGACUUCGCAUAGGAAAACUAUGUGAAGUCCGAGGACCGGUACGGCCGCCACUCGUCCUCAACAUGAGGAUCACCCAUGUAAUAA has what recorded apparent Kd?
RESULT: 27.3

QUERY: Item AACAUGAGGAUCACCCAUGUGUCCUCGAAACGAGGACCGGUACGGCCGCCACUCGAAAGGUGUUGACGAAAAGUCAGCACCAAAA has what recorded apparent Kd?
RESULT: 930

QUERY: Item UCUUUUUUCUUUUCUUCUUUCGGUUCUUUUCGAGGACCGGUACGGCCGCCACUCGAAACAUGAGGAUCACCCAUGUUUUGGUUUU has what recorded apparent Kd?
RESULT: 17.5

QUERY: Item AGCACUGUGACGGCCGCCACUACAUAUAGGGUGGUCAGGUUCAUAAUACAUGAGGAUCACCCAUGUAGGACCGGGUCUCAGUGCA has what recorded apparent Kd?
RESULT: 14.4
